Assay Details: Toxicity liver stage against HepG2, at 10uM
Type: cell-based
Parameters: test concentration 10 uM, cell line HepG2-A16-CD81EGFP
Test Conditions: human, HepG2-A16-CD81EGFP cells; read-out: INHIBITION
Reported cytotoxicity at 10 µM values are given for each entry in this list.
Measurement Type: cytotoxicity at 10 µM (%)

# Molecule, Obs Value
records = [
    ("CCN(Cc1nc2c(cnn2C)c(=O)[nH]1)c1ccccc1C", 2.78),
    ("CC(C)(C)C(=O)Cn1nc(-c2ccccc2F)ccc1=O", -8.46),
    ("O=C(NC1CCS(=O)(=O)C1)c1cn(C2CC2)c(=O)c2ccccc12 (stereo not drawn)", -5.65),
    ("Cc1nc2cc(O)nn2c(C)c1CCC(=O)NCCc1ccccc1", -6.65),
    ("O=C(c1ccc(F)cc1)N1CCC2(CCCN2CC2CC2)CC1", 5.05),
    ("Fc1ccc(CN2CCCn3nnc(COCC4CC4)c3C2)cc1", -109),
    ("Cc1nccc(CNC(=O)NCCC(=O)N2CCCc3ccccc32)n1", -0.457),
    ("COc1c(C(=O)N2CCC(COCc3ccccc3)C2)c(C)nn1C (stereo not drawn)", 7.39),
    ("COCCc1noc(CNCC2CCCN2c2cccnn2)n1 (stereo not drawn)", 4.33),
    ("Cn1ccc(C(=O)N2CCCC2c2cc(CO)[nH]n2)n1 (stereo not drawn)", 4.95),
    ("COc1ccc(S(=O)(=O)NC(=O)COc2ccc3c(c2)CCC3)cc1", -6.72),
    ("COCC(=O)NC1CCN(c2cccc(OC(F)(F)F)c2)C1=O (stereo not drawn)", -3.17),
    ("CC(C)(C)c1n[nH]c(C2CN(CC3CCC3)CCO2)n1 (stereo not drawn)", 9.15),
    ("CCCN(CC(F)F)C(=O)CCc1c(C)nc2cc(O)nn2c1C", -147),
    ("Cc1cccc(CCC(=O)Nc2ccnn2C2CCS(=O)(=O)C2)c1 (stereo not drawn)", 0.499),
    ("CCc1cnc2c(c1Nc1ccc(C)c(F)c1)c(=O)n(C)c(=O)n2C", -2.5),
    ("CCc1nc(C2CCCN2CCn2cncn2)no1 (stereo not drawn)", -8.13),
    ("Cc1cccc(C)c1OCC(O)CNCc1c(C)nn(C)c1N(C)C (stereo not drawn)", -1.47),
    ("O=C(c1ccsc1)N1CCN(CC(O)c2cccc(F)c2)CC1 (stereo not drawn)", -46.7),
    ("CC(C)c1noc(CN(C)C(c2ccc(F)cc2)c2cccnc2)n1 (stereo not drawn)", 5.66),
    ("CCc1ccc(CN2CCC3(CC2)CC(N2CCN(C)CC2)CO3)cc1 (stereo not drawn)", -2.88),
    ("O=C(NCCO)Nc1cccc(Cl)c1SC(F)F", 5.98),
    ("COCc1cc(NCC(F)(F)F)n2nccc2n1", 17),
    ("CCOc1ccccc1OC1CCN(C(=O)c2nc(=O)[nH][nH]2)CC1", -9.75),
    ("CCN(C(=O)CN(CC(N)=O)C(C)C)C1=CCCC1", 14.1),
    ("COc1ccccc1S(=O)(=O)N1CCC2(CC1)[C@H](O)C[C@@H]2O", 9.12),
    ("O=C(NCCOCCO)c1cccnc1Oc1ccc(Cl)cc1", 1.38),
    ("N#Cc1csc(CNCCOc2ccc(Cl)cn2)c1", -5.59),
    ("NC(=O)CCN(C(=O)c1cccc2c1OCO2)c1ccccc1", -16.5),
    ("Cc1ccccc1OCC(=O)N1CC[C@]2(C[C@@H](OCC3CC3)CO2)C1", 3.1),
    ("O=C(NC1CCC(O)CC1)c1ccc2nc(-c3ccccc3)cn2c1 (stereo not drawn)", 8.99),
    ("Cc1ccc(Nc2nccc(C3CCN(C(=O)CN)C3)n2)nc1 (stereo not drawn)", -18.5),
    ("COc1cccc(Nc2nc(-c3ccncc3)nc3c2CNCC3)c1", -6.61),
    ("O=C(c1ccc2[nH]nnc2c1)N1CCCC(n2cccn2)C1 (stereo not drawn)", -1.56),
    ("N#Cc1cccnc1NCCc1cc(F)cc2c1OCOC2", 19.5),
    ("O=S(=O)(c1ccccc1)N1CCC2(CCCN2CC2CCCC2)C1 (stereo not drawn)", 4.4),
    ("CN(C)c1ccc(C(=O)N(CCO)CC2CC2)c(F)c1", 5.25),
    ("CCC(CO)N(Cc1ccco1)C(=O)c1ccccc1SC (stereo not drawn)", 6.41),
    ("Cc1ccc(-c2nnc(CN3CCOCC(CO)C3)o2)n1C (stereo not drawn)", -3.28),
    ("OC1CCCN(Cc2ccnc(-c3cccnc3)n2)C1 (stereo not drawn)", 14),
    ("COc1c(CNCc2ccc(CN(C)C)cc2)c(C(C)C)nn1C", -11.2),
    ("Cc1cccc(OCCN2CCCC(c3cc(C(N)=O)[nH]n3)C2)c1 (stereo not drawn)", -11.9),
    ("Cc1nc(CN2CCC(c3nc4ccccc4n3C)CC2)co1", 13.5),
    ("Cc1ccc(CNC(=O)c2nc3c(o2)CN(C(=O)c2cccnc2)C3)o1", 0.109),
    ("O=C(CCCNCc1ccc(Cl)c2cccnc12)NC1CC1", -4.76),
    ("Cn1cc(CC2CCN(C(=O)NCc3cn4ccsc4n3)C2)cn1 (stereo not drawn)", -5.57),
    ("CCSc1ccc(NC(=O)NC(C)c2c(C)noc2C)cn1 (stereo not drawn)", -3.69),
    ("CN1[C@H](CO)C[C@H](CNCc2ccc(CO)o2)[C@@H]1c1ccccc1F", -9.37),
]

====

Assay Details: Toxicity liver stage against HepG2, at 10uM
Type: cell-based
Set-up: test concentration 10 uM, cell line HepG2-A16-CD81EGFP
Test Conditions: human, HepG2-A16-CD81EGFP cells; read-out: INHIBITION
Reported cytotoxicity at 10 µM values are given for each entry in this list.

# Compound, cytotoxicity at 10 µM, %
rows = [
    ("CN(C)CCN(Cc1ccc(Cl)cc1)C(=O)c1ccncc1", 7.99),
    ("Cc1ccc(F)c(NCC(C)(C)S(C)(=O)=O)c1", -7.6),
    ("CC(C)[C@H](NS(C)(=O)=O)C(=O)NCc1cc(-c2ccccc2)nn1C", -7.88),
    ("O=C(c1cccnc1)N1CCc2c(COCC3CC3)cncc2C1", -77.2),
    ("Cc1c(Cl)cccc1NC(=O)CCNc1ccc(C#N)cn1", -0.106),
    ("Cc1ccc(NC2CCN(C(=O)COC3CCCC3)CC2)nn1", 2.31),
    ("O=C(CCCc1ccccc1)Nc1cnc(N2CCOCC2)nc1", -13.9),
    ("CNC(=O)c1nc2c(s1)CCN(C(=O)c1cccc(OC)c1)CC2", 9.84),
    ("Nc1no[n+]([O-])c1C(=O)NCc1ccccn1", -2.02),
    ("Cc1nc(C)n(CC2CCCCN2CC(=O)Nc2nncs2)n1 (configuration not stated)", 4.62),
    ("Cc1cc(C(=O)NCc2ccnc(N3CCN(C)CC3)c2)c(C)s1", -10.7),
    ("O=C1NCCN1C1CCN(Cc2nc(-c3ccoc3)no2)CC1", -9.06),
]

====

Assay Details: Toxicity liver stage against HepG2, at 10uM
Assay type: cell-based
Parameters: test concentration 10 uM, cell line HepG2-A16-CD81EGFP
Test Conditions: human, HepG2-A16-CD81EGFP cells; read-out: INHIBITION
Decision: cytotoxicity at 10 µM beneath -10% gives yes (1); cytotoxicity at 10 µM meeting or exceeding -10% gives no (0).

# Compound, Qualitative Label
rows = [
    ("CCN1CCCC(C)(C(=O)NCc2nnnn2-c2ccccc2)C1 (stereo unspecified)", "yes (1)"),
    ("Cc1ccc(SCCN(C)C(=O)c2cn(C3CCC(N)CC3)nn2)cc1 (stereo unspecified)", "no (0)"),
    ("CCS(=O)(=O)Cc1csc(-c2ccc(S(C)(=O)=O)cc2)n1", "no (0)"),
    ("Cc1cc(NC(=O)NCC(C(C)C)N2CCOCC2)n(C)n1 (stereo unspecified)", "yes (1)"),
    ("Cn1cc(C2CCCN2Cc2csc(C(C)(C)C)n2)cn1 (stereo unspecified)", "no (0)"),
    ("Cn1ncc(N2CCOC(CCNC(=O)NC(C)(C)C)C2)cc1=O (stereo unspecified)", "no (0)"),
    ("COCCNCc1cc2c(C)cc(C)cc2n2c(=O)n(C)nc12", "yes (1)"),
    ("O=C(NCCNc1ncccn1)C1CCN(C(=O)NC2CC2)CC1", "yes (1)"),
    ("Cc1noc(C)c1CCC(=O)N1CCCN(Cc2cscn2)CC1", "no (0)"),
    ("CC(C)C[C@@H](N)C(=O)N(C)Cc1csc(C(C)C)n1", "yes (1)"),
    ("N#Cc1ccnc(N2CCN(CC(O)c3ccc(F)cc3F)CC2)c1 (stereo unspecified)", "no (0)"),
]
